Please respond with reported self-cleavage for every item in the list.
B1: LINE1-mini (parent)
chain: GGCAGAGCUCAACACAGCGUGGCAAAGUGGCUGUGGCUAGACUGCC

variants of: B1; assay: self-cleavage, relative activity (ratio to wild type); higher = more cleavage; in vitro, sequencing; the parent is a self-cleaving ribozyme

The examples below pair each entry with its known result.
INSERT INTO assay_data (seq_string, value_type, endpoint_result) VALUES
  ('GGCAGAGCUCAACACAGCGUGGCAAAGUGGCUGCGACUAGACUGCC', 'self-cleavage', 0.09),
  ('GGCAGAGAUCAACACAGCGUUGCAAAGUGGCUGUGGCUAGACUGCC', 'self-cleavage', 0.23),
  ('GGCAGAGCUCAACCCAGCGUGGCAAUGUGGCUGUGGCUAGACUGCC', 'self-cleavage', 0.09),
  ('GGCAGAGCUCAACACAGCGUGGCAAAGUGGCUGUGGCUAGACUGCG', 'self-cleavage', 0.99),
  ('GGCAGAGCGCAACACAGCGUGGCGAAGUGGCUGUGGCUAGACUGCC', 'self-cleavage', 0.14),
  ('GGCAGGGCUCAACACAGCGUGGCAAAGUGGCUGUGGCUAGACUACC', 'self-cleavage', 0.46);

Provide self-cleavage values for the following items, in order.
1. GGCAGAGCUCAACACAGCGUGGCAACGUGGCUGUCGCUAGACUGCC
2. GGCAGAGCUCAACACAGCGUGUCAAAAUGGCUGUGGCUAGACUGCC
3. GGAAGAGCUCAACACAGCGCGGCAAAGUGGCUGUGGCUAGACUGCC

[0.16, 1.04, 0.19]
